molecular target: Cytochrome P450 3A4 (Homo sapiens) (UniProt P08684); test: qHTS Assay for Inhibitors and Substrates of Cytochrome P450 3A4 (AID 884); details: recombinant CYP3A4, Luciferin-PPXE luminescence; series mostly up to 57.1 µM; further: nearly all actives have a fitted effect of over 50% in size
Sequence (P08684 whole entry, looked up): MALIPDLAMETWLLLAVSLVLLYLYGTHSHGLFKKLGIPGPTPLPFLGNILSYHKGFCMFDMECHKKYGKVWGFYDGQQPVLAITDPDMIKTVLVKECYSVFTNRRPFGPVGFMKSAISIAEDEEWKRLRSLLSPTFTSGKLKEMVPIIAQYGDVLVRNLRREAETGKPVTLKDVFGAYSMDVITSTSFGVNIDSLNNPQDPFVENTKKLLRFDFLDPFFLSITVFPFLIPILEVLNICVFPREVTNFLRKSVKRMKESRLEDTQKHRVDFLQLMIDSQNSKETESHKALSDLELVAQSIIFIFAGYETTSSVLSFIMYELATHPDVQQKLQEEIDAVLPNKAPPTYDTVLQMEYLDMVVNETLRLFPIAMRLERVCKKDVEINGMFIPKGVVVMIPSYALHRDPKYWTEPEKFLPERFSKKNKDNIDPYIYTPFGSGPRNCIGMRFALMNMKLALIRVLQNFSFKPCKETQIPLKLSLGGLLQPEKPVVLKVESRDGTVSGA
Results filed as inconclusive are left out. The source made the active and inactive calls. The call rests on the fitted dose curve; in most records, active means well fitted inhibition curve with a large enough effect; inconclusive means small, poorly fitted or top-dose-only effect; inactive means no such curve, though single readings can be large or run the other way.
Classes used: 1 (yes) = active, 0 (no) = inactive

| Compound | Class Label |
| --- | --- |
| COc1ccccc1CC(Cc1nc2ccccc2[nH]1)c1nc2ccccc2[nH]1 (configuration not stated) | 1 (yes) |
| C=CCN1CCc2c(cc(O)c(O)c2Cl)C(c2cccc(C)c2)C1 (configuration not stated) | 0 (no) |
| CC1(C(=O)NCCCNc2ncc(C(F)(F)F)cc2Cl)C=CC2(CCCCC2)N1C(=O)c1ccccc1 (configuration not stated) | 1 (yes) |
| COC(=O)[C@@H]1C[C@@]2(O)[C@@H](O)[C@@H](O)[C@@H](O)C[C@H]2N1Cc1ccc(C(C)(C)C)cc1 | 1 (yes) |
| COC(=O)N1CC=CC1(C)C(=O)O (configuration not stated) | 0 (no) |
| Nc1ccccc1C(=O)/C=C\c1ccc2c(c1)OCO2 | 1 (yes) |
| CNC(=O)[C@]1(C)C[C@H]1[C@H](NC(=O)[C@]1(C)C[C@H]1[C@H](NC(=O)OCc1ccccc1)c1ccccc1)c1ccccc1 | 1 (yes) |
| C[C@]1(C(=O)NCc2cc(F)cc(C(F)(F)F)c2)C=C[C@@H](Cc2ccccc2)N1C(=O)c1ccccc1 | 1 (yes) |
| COC(=O)C/C=C\[C@@H](C)[C@@H](/C=N\O[C@@H](C)c1cc(-c2c(C)cc(C)cc2C)no1)NS(=O)(=O)c1ccc(C)cc1 | 1 (yes) |
| COC(=O)c1cccc(C23CC4(C2)[C@H](CN(Cc2cccnc2)[C@@H]4c2ccccc2)C3c2ccccc2)c1 (some centres not stated) | 1 (yes) |
| NC(=O)NCC1CC1 | 0 (no) |
| CCC1=C(OC(=O)N(CC)CC)N2C(=O)OC(=NCCc3c[nH]c4ccccc34)[C@]2(Cc2ccccc2)[C@H]2C1=CC[C@H]1C(=O)N(C)C(=O)[C@H]12 | 1 (yes) |
| CCC1=C2CC[C@H]3C(=O)N(C)C(=O)[C@H]3[C@H]2[C@@]2(Cc3ccccc3)C(=NCC(=O)OC)OC(=O)N2C1=O | 1 (yes) |
| CCC1=C(OC(=O)N(CC)CC)N2C(=O)OC(=NCC3CC3)[C@]2(C)[C@H]2C1=CC[C@H]1C(=O)N(C)C(=O)[C@H]12 | 1 (yes) |
| COCCNC(=O)[C@H](C)/C=C(\c1cccnc1)C(NC(=O)OCc1ccccc1)c1ccc(C(=O)OC)cc1 (some centres not stated) | 1 (yes) |
| CCC1=C2CC[C@H]3C(=O)N(c4ccccc4)C(=O)[C@H]3[C@H]2[C@@]2(C)C(=NCc3ccccc3)OC(=O)N2C1=O | 1 (yes) |
| COC(=O)c1ccc(C(NC(=O)OCc2ccccc2)/C(=C/[C@@H](C)C(=O)Nc2ccccc2)c2cccnc2)cc1 (some centres not stated) | 1 (yes) |
